Target: ATP-binding cassette sub-family C member 9 (Rattus norvegicus, UniProt Q63563)
Sequence (Q63563 whole entry): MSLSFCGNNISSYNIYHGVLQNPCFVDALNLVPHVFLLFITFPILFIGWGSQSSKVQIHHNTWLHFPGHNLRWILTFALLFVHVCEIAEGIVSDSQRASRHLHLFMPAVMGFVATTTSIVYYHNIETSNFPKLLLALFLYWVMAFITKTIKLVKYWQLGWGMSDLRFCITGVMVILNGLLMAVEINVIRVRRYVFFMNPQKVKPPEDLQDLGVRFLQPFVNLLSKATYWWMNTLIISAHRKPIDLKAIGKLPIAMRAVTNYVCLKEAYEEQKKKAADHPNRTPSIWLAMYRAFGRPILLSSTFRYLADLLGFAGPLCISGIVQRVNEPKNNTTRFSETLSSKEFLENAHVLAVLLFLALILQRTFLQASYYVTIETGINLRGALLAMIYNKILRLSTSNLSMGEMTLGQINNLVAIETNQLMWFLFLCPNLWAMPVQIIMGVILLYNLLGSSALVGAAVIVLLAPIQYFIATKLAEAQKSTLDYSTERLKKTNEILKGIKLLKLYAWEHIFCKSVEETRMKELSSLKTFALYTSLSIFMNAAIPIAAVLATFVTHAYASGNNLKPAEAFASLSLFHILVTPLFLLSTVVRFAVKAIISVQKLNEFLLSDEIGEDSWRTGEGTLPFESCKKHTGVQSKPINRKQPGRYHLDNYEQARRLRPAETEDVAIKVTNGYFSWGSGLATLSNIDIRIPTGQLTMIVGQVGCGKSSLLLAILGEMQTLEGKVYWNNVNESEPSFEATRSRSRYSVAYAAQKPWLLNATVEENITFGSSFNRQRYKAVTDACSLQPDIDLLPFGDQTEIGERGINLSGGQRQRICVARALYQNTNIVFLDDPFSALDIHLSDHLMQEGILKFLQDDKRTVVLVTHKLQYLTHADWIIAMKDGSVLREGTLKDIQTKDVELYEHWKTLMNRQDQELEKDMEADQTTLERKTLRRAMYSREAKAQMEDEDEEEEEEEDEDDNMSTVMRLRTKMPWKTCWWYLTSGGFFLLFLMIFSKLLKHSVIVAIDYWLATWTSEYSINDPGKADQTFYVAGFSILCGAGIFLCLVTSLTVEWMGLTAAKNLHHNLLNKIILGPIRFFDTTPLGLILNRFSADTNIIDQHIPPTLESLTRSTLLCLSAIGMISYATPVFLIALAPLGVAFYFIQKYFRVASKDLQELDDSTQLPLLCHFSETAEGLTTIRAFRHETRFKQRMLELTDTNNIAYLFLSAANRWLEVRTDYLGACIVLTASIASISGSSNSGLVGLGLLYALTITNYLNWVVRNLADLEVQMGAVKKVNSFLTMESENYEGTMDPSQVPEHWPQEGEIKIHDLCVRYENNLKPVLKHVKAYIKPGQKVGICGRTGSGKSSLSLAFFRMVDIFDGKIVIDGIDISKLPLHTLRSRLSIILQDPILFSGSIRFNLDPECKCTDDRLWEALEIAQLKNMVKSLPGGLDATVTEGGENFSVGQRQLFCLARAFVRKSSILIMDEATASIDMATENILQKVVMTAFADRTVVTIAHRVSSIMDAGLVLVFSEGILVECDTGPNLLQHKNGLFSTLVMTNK
Assay: Binding affinity towards Sulfonylurea receptor 2B (SUR2B) in cultured rat aortic smooth muscle cells (SMC)
Label yes (1) when Kd is strictly below 60 nM; otherwise label no (0).

{"columns": ["molecular.string", "category"],
 "data": [
  ["CC1(C)C=C(n2ccccc2=O)c2cc(S(=O)(=O)c3ccccc3)ccc2O1", "no (0)"],
  ["CC1(C)C=C(n2ccccc2=O)c2cc(S(=O)(=O)NCCO)ccc2O1", "no (0)"],
  ["CC1(C)C=C(n2ccccc2=O)c2cc(C#N)ccc2O1", "yes (1)"],
  ["CNS(=O)(=O)c1ccc2c(c1)C(n1ccccc1=O)=CC(C)(C)O2", "yes (1)"],
  ["CC1(C)C=C(n2ccccc2=O)c2cc(S(=O)(=O)Nc3ccc(Br)cc3)ccc2O1", "no (0)"],
  ["CCN(CC)S(=O)(=O)c1ccc2c(c1)C(n1ccccc1=O)=CC(C)(C)O2", "no (0)"],
  ["CC1(C)C=C(n2ccccc2=O)c2cc(S(=O)(=O)F)ccc2O1", "yes (1)"],
  ["[2H]c1c([2H])c([2H])c(NS(=O)(=O)c2ccc3c(c2)C(n2ccccc2=O)=CC(C)(C)O3)c([2H])c1[2H]", "yes (1)"],
  ["CC1(C)C=C(n2ccccc2=O)c2cc(S(=O)(=O)Nc3ccccc3)ccc2O1", "yes (1)"],
  ["CC1(C)C=C(n2ccccc2=O)c2cc(S(=O)(=O)NCc3ccccc3)ccc2O1", "no (0)"],
  ["CC1(C)C=C(n2ccccc2=O)c2cc(S(=O)(=O)NC3CCCC3)ccc2O1", "no (0)"],
  ["COc1ccc(NS(=O)(=O)c2ccc3c(c2)C(n2ccccc2=O)=CC(C)(C)O3)cc1", "no (0)"],
  ["CN(C)S(=O)(=O)c1ccc2c(c1)C(n1ccccc1=O)=CC(C)(C)O2", "no (0)"],
  ["CC1(C)C=C(n2ccccc2=O)c2cc(S(=O)(=O)Oc3ccccc3)ccc2O1", "yes (1)"],
  ["CC1(C)Oc2ccc(S(=O)(=O)c3ccccc3)cc2[C@@H](N2CCCC2=O)[C@@H]1O", "yes (1)"],
  ["CCNS(=O)(=O)c1ccc2c(c1)C(n1ccccc1=O)=CC(C)(C)O2", "no (0)"],
  ["CC(C)NS(=O)(=O)c1ccc2c(c1)C(n1ccccc1=O)=CC(C)(C)O2", "no (0)"],
  ["CC1(C)C=C(n2ccccc2=O)c2cc(S(=O)(=O)Nc3ccccc3F)ccc2O1", "yes (1)"],
  ["CC1(C)C=C(n2ccccc2=O)c2cc(S(=O)(=O)Nc3ccc([N+](=O)[O-])cc3)ccc2O1", "no (0)"],
  ["CC1(C)C=C(n2ccccc2=O)c2cc(S(N)(=O)=O)ccc2O1", "no (0)"]
]}

---

Target: ATP-binding cassette sub-family C member 9 (Rattus norvegicus, UniProt Q63563)
Assay: Binding affinity towards Sulfonylurea receptor 2B (SUR2B) in cultured rat aortic smooth muscle cells (SMC)
// reported Kd per item

{"columns": ["molecular.string", "Kd [nM]"],
 "data": [
  ["CC1(C)C=C(n2ccccc2=O)c2cc(S(=O)(=O)Nc3ccc(C#N)cc3)ccc2O1", 759],
  ["CN(c1ccccc1)S(=O)(=O)c1ccc2c(c1)C(n1ccccc1=O)=CC(C)(C)O2", 13],
  ["CC1(C)C=C(n2ccccc2=O)c2cc(S(=O)(=O)Nc3ccccc3Br)ccc2O1", 23],
  ["CC1(C)C=C(n2ccccc2=O)c2cc(S(=O)(=O)N3CCOCC3)ccc2O1", 186]
]}

---

// reported log10 of Kd per item
Target: ATP-binding cassette sub-family C member 9 (Rattus norvegicus, UniProt Q63563)
Assay: Binding affinity to the sulfonylurea receptor 2A (SUR2A) in purified membranes of rat-heart myocytes
measured.quantity: log10 of Kd (log10 of the value in nM)

{"columns": ["molecular.string", "endpoint.result"],
 "data": [
  ["CC1(C)C=C(n2ccccc2=O)c2cc(C#N)ccc2O1", 1.75],
  ["CC1(C)C=C(n2ccccc2=O)c2cc(S(=O)(=O)Nc3ccc(C#N)cc3)ccc2O1", 3.50],
  ["CC1(C)C=C(n2ccccc2=O)c2cc(S(=O)(=O)Nc3ccc([N+](=O)[O-])cc3)ccc2O1", 3.65],
  ["CC1(C)C=C(n2ccccc2=O)c2cc(S(=O)(=O)NCc3ccccc3)ccc2O1", 3.72],
  ["[2H]c1c([2H])c([2H])c(NS(=O)(=O)c2ccc3c(c2)C(n2ccccc2=O)=CC(C)(C)O3)c([2H])c1[2H]", 1.28],
  ["CC1(C)C=C(n2ccccc2=O)c2cc(S(=O)(=O)NC(=O)Nc3ccccc3)ccc2O1", 3.45],
  ["CC1(C)C=C(n2ccccc2=O)c2cc(S(N)(=O)=O)ccc2O1", 2.50],
  ["COc1ccc(NS(=O)(=O)c2ccc3c(c2)C(n2ccccc2=O)=CC(C)(C)O3)cc1", 2.73],
  ["CC1(C)C=C(n2ccccc2=O)c2cc(S(=O)(=O)F)ccc2O1", 1.18],
  ["CN(C)S(=O)(=O)c1ccc2c(c1)C(n1ccccc1=O)=CC(C)(C)O2", 2.09],
  ["CC1(C)Oc2ccc(S(=O)(=O)c3ccccc3)cc2[C@@H](N2CCCC2=O)[C@@H]1O", 1.43],
  ["CC1(C)C=C(n2ccccc2=O)c2cc(S(=O)(=O)N=[N+]=[N-])ccc2O1", 1.18],
  ["CC1(C)C=C(n2ccccc2=O)c2cc(S(=O)(=O)Nc3ccccc3F)ccc2O1", 1.36],
  ["CCN(CC)S(=O)(=O)c1ccc2c(c1)C(n1ccccc1=O)=CC(C)(C)O2", 2.55],
  ["CC1(C)C=C(n2ccccc2=O)c2cc(S(=O)(=O)NCCO)ccc2O1", 2.84],
  ["CC(C)NS(=O)(=O)c1ccc2c(c1)C(n1ccccc1=O)=CC(C)(C)O2", 3.82],
  ["CCNS(=O)(=O)c1ccc2c(c1)C(n1ccccc1=O)=CC(C)(C)O2", 2.30],
  ["CC1(C)C=C(n2ccccc2=O)c2cc(S(=O)(=O)Nc3ccccc3)ccc2O1", 1.18],
  ["CC1(C)C=C(n2ccccc2=O)c2cc(S(=O)(=O)Nc3ccc(Br)cc3)ccc2O1", 3.23],
  ["CC1(C)C=C(n2ccccc2=O)c2cc(S(=O)(=O)Nc3ccccc3Br)ccc2O1", 2.14],
  ["CC1(C)C=C(n2ccccc2=O)c2cc(S(=O)(=O)NC3CCCC3)ccc2O1", 3.15],
  ["CN(c1ccccc1)S(=O)(=O)c1ccc2c(c1)C(n1ccccc1=O)=CC(C)(C)O2", 1.30],
  ["CC1(C)C=C(n2ccccc2=O)c2cc(S(=O)(=O)Oc3ccccc3)ccc2O1", 1.23],
  ["CC1(C)C=C(n2ccccc2=O)c2cc(S(=O)(=O)c3ccccc3)ccc2O1", 2.14],
  ["CNS(=O)(=O)c1ccc2c(c1)C(n1ccccc1=O)=CC(C)(C)O2", 1.82],
  ["CC1(C)C=C(n2ccccc2=O)c2cc(S(=O)(=O)N3CCOCC3)ccc2O1", 2.56],
  ["CC1(C)C=C(n2ccccc2=O)c2cc(S(=O)(=O)NC(=O)NC3CCCCC3)ccc2O1", 3.75]
]}
